Measured T:B accompanies every entry in the list below.
# System: AR42J tumor xenografts
# experimental details: Biodistribution of 99mTc-labeled compounds in nude mice with AR42J tumor xenografts
# Format: in vivo
# test conditions: tumor to blood ratio; 99mTc-labeled compound, 90 minutes post-injection
*1 amine or outer side, *2 acyl side, *3 side chain or, on linkers, in order; H or OH if unused. Where a SMILES comes first, the peptide text is derived from it. Bridges are numbered along the chain shown (N, C = ends). Roman numbers before positions name the chains, in order. [ ]: non-standard residue; d: D form. ξ: configuration not given here. Phe(4-NH2) = Nc1ccc(C[C@H](N)C(=O)O)cc1; NMehCys = CN[C@@H](CCS)C(=O)O; Thr(3ξ) = CC(O)[C@H](N)C(=O)O; Dap = NC[C@H](N)C(=O)O; X1 = O=C(C[*:1])[*:2]
quantity name: T:B

# molecule, study target, value reported
rows = [
    ("C[C@@H](O)[C@@H]1NC(=O)[C@H](CCCCN)NC(=O)[C@@H](Cc2c[nH]c3ccccc23)NC(=O)[C@H](Cc2ccc(O)cc2)NC(=O)[C@H](CCSCC(=O)NC[C@H](N)C(=O)N[C@@H](CO)C(=O)N[C@@H](CS)C(=O)N[C@H](CO)[C@@H](C)O)N(C)C(=O)[C@H](Cc2ccccc2)NC1=O", "AR42J tumor xenografts", 31),
    ("CC(O)[C@H](NC(=O)[C@H](CS)NC(=O)[C@H](Cc1ccc(N)cc1)NC(=O)[C@@H](N)CNC(=O)CSCC[C@H]1C(=O)N[C@@H](Cc2ccc(O)cc2)C(=O)N[C@H](Cc2c[nH]c3ccccc23)C(=O)N[C@@H](CCCCN)C(=O)N[C@@H](C(C)O)C(=O)N[C@@H](Cc2ccccc2)C(=O)N1C)C(=O)N[C@@H](CO)C(=O)O (stereo partly drawn) (I: cyclo(F[NMehCys]Y[dW]K[Thr(3ξ)]) / II: H-[Dap][Phe(4-NH2)]C[Thr(3ξ)]S-OH; linker I:2-II:1 via X1)", "AR42J tumor xenografts", 29),
    ("C[C@@H](O)[C@@H]1NC(=O)[C@H](CCCCN)NC(=O)[C@@H](Cc2c[nH]c3ccccc23)NC(=O)[C@H](Cc2ccc(O)cc2)NC(=O)[C@H](CCSCC(=O)NC[C@H](N)C(=O)N[C@@H](CCCCN)C(=O)N[C@@H](CS)C(=O)N[C@H](CO)[C@@H](C)O)N(C)C(=O)[C@H](Cc2ccccc2)NC1=O", "AR42J tumor xenografts", 48),
]

----------
# Test system: SSTRs, NCI-H69 membranes
# experimental details: [125I]SST-14 binding to NCI-H69 cell membranes (SSTR affinity)
# Design: species or system human
# test conditions: inhibition of [125I]SST-14 binding; two-site fit; read-out: IC50 Values for Uncomplexed Compounds, NCI-H69 (first value)
pIC50: −log10 of the molar value. Where a SMILES comes first, the peptide text is derived from it. [ ]: non-standard residue; d: D form. NMehCys = CN[C@@H](CCS)C(=O)O

# molecule, study target, pIC50
rows = [
    ("C[C@@H](O)[C@@H]1NC(=O)[C@H](CCCCN)NC(=O)[C@@H](Cc2c[nH]c3ccccc23)NC(=O)[C@H](Cc2ccc(O)cc2)NC(=O)[C@H](CCSCC(=O)NC[C@H](N)C(=O)N[C@@H](Cc2ccc(N)cc2)C(=O)N[C@@H](CS)C(=O)N[C@H](CO)[C@@H](C)O)N(C)C(=O)[C@H](Cc2ccccc2)NC1=O", "SSTRs, NCI-H69 membranes", 9.30),
    ("C[C@@H](O)[C@@H]1NC(=O)[C@H](CCCCN)NC(=O)[C@@H](Cc2c[nH]c3ccccc23)NC(=O)[C@H](Cc2ccc(O)cc2)NC(=O)[C@H](CCSCC(=O)NC[C@H](N)C(=O)N[C@@H](CO)C(=O)N[C@@H](CS)C(=O)N[C@H](CO)[C@@H](C)O)N(C)C(=O)[C@H](Cc2ccccc2)NC1=O", "SSTRs, NCI-H69 membranes", 8.80),
    ("C[C@@H](O)[C@@H]1NC(=O)[C@H](CCCCN)NC(=O)[C@@H](Cc2c[nH]c3ccccc23)NC(=O)[C@H](Cc2ccc(O)cc2)NC(=O)[C@H](CCSCC(=O)NC[C@H](N)C(=O)N[C@@H](CCCNC(=N)N)C(=O)N[C@@H](CS)C(=O)N[C@H](CO)[C@@H](C)O)N(C)C(=O)[C@H](Cc2ccccc2)NC1=O", "SSTRs, NCI-H69 membranes", 9.38),
    ("C[C@@H](O)[C@@H]1NC(=O)[C@H](CCCCN)NC(=O)[C@@H](Cc2c[nH]c3ccccc23)NC(=O)[C@H](Cc2ccc(O)cc2)NC(=O)[C@H](CCSCC(=O)NC[C@H](N)C(=O)N[C@@H](CCCCN)C(=O)N[C@@H](CS)C(=O)N[C@H](CO)[C@@H](C)O)N(C)C(=O)[C@H](Cc2ccccc2)NC1=O", "SSTRs, NCI-H69 membranes", 9.46),
    ("CC(C)[C@@H]1NC(=O)[C@H](CCCCN)NC(=O)[C@@H](Cc2c[nH]c3ccccc23)NC(=O)[C@H](Cc2ccc(O)cc2)NC(=O)[C@H](CCS)N(C)C(=O)[C@H](Cc2ccccc2)NC1=O [cyclo-YWDKVF.(N—CH3).Hcy.] (cyclo(Y[dW]KVF[NMehCys]))", "SSTRs, NCI-H69 membranes", 9.68),
    ("C[C@@H](O)[C@@H]1NC(=O)[C@H](CCCCN)NC(=O)[C@@H](Cc2c[nH]c3ccccc23)NC(=O)[C@H](Cc2ccc(O)cc2)NC(=O)[C@H](CCSCC(=O)N[C@@H](CO)C(=O)N[C@@H](CO)C(=O)N[C@@H](CS)C(=O)NCCOCCOCCN)N(C)C(=O)[C@H](Cc2ccccc2)NC1=O", "SSTRs, NCI-H69 membranes", 9.19),
    ("C[C@@H](O)[C@@H]1NC(=O)[C@H](CCCCN)NC(=O)[C@@H](Cc2c[nH]c3ccccc23)NC(=O)[C@H](Cc2ccc(O)cc2)NC(=O)[C@H](CCSCC(=O)NC[C@H](N)C(=O)N[C@@H](CCN)C(=O)N[C@@H](CS)C(=O)NC(CO)CO)N(C)C(=O)[C@H](Cc2ccccc2)NC1=O", "SSTRs, NCI-H69 membranes", 8.97),
]

----------
# Tested on: AR42J tumor xenografts
# experimental details: Biodistribution of 99mTc-labeled compounds in nude mice with AR42J tumor xenografts
# Assay type: in vivo
# test conditions: 99mTc-labeled compound, i.v., 90 minutes post-injection

# smiles text, TUMOR
rows = [
    ("C[C@@H](O)[C@@H]1NC(=O)[C@H](CCCCN)NC(=O)[C@@H](Cc2c[nH]c3ccccc23)NC(=O)[C@H](Cc2ccc(O)cc2)NC(=O)[C@H](CCSCC(=O)NCCC[C@H](N)C(=O)NCC(=O)N[C@@H](CS)C(N)=O)N(C)C(=O)[C@H](Cc2ccccc2)NC1=O", "1.8 %ID/g"),
    ("C[C@@H](O)[C@@H]1NC(=O)[C@H](CCCCN)NC(=O)[C@@H](Cc2c[nH]c3ccccc23)NC(=O)[C@H](Cc2ccc(O)cc2)NC(=O)[C@H](CCSCC(=O)NC[C@H](N)C(=O)N[C@@H](CCN)C(=O)N[C@@H](CS)C(=O)NC(CO)CO)N(C)C(=O)[C@H](Cc2ccccc2)NC1=O", "10.8 %ID/g"),
    ("C[C@@H](O)[C@@H]1NC(=O)[C@H](CCCCN)NC(=O)[C@@H](Cc2c[nH]c3ccccc23)NC(=O)[C@H](Cc2ccc(O)cc2)NC(=O)[C@H](CCSCC(=O)N[C@@H](CO)C(=O)N[C@@H](CO)C(=O)N[C@@H](CS)C(=O)NCCOCCOCCN)N(C)C(=O)[C@H](Cc2ccccc2)NC1=O", "10.6 %ID/g"),
    ("C[C@@H](O)[C@H](NC(=O)CSCC[C@H]1C(=O)N[C@@H](Cc2ccc(O)cc2)C(=O)N[C@H](Cc2c[nH]c3ccccc23)C(=O)N[C@@H](CCCCN)C(=O)N[C@@H]([C@@H](C)O)C(=O)N[C@@H](Cc2ccccc2)C(=O)N1C)C(=O)NCC(=O)NCC(=O)N[C@@H](CS)C(N)=O", "3.81 %ID/g"),
    ("C[C@@H](O)[C@@H]1NC(=O)[C@H](CCCCN)NC(=O)[C@@H](Cc2c[nH]c3ccccc23)NC(=O)[C@H](Cc2ccc(O)cc2)NC(=O)[C@H](CCSCC(=O)NC[C@H](N)C(=O)N[C@@H](Cc2c[nH]cn2)C(=O)N[C@@H](CS)C(=O)N[C@H](CO)[C@@H](C)O)N(C)C(=O)[C@H](Cc2ccccc2)NC1=O", "15.5 %ID/g"),
]
